- System: alkaline phosphatase
- assaySummary: Chemiluminescence emission wavelength maximum (Spex Fluorolog)
- Assay type: biochemical
- settings: on a nylon membrane
measurementType: Emission Max, nm, On Nylon (nm)
Hi! Could you send only the number? It should be in nm, unit omitted.

I would be grateful if you could share the reported Emission Max, nm, On Nylon for COc1cc(OP(=O)([O-])[O][NaH2-2])cc(C2(OC)OOC23C2CC4CC(C2)CC3C4)c1.[Na+] (stereo not shown) .
461

I would be grateful if you could share the reported Emission Max, nm, On Nylon for COc1cc(OP(=O)([O-])[O][NaH2-2])cc(C2(OC)OOC23C2CC4CC3CC(Cl)(C4)C2)c1.[Na+] (stereo not shown) .
463

I would be grateful if you could share the reported Emission Max, nm, On Nylon for COC1(c2cc(Cl)cc(OP(=O)([O-])[O][NaH2-2])c2)OOC12C1CC3CC2CC(Cl)(C3)C1.[Na+] (stereo not shown) .
459

I would be grateful if you could share the reported Emission Max, nm, On Nylon for COC1(c2cc(Cl)cc(OP(=O)([O-])[O][NaH2-2])c2)OOC12C1CC3CC(C1)CC2C3.[Na+] (stereo not shown) .
461

###

- Test system: alkaline phosphatase
- assaySummary: Quantum yield determination of dioxetane chemiluminescence after alkaline phosphatase addition
- Type: biochemical
- settings: 0.1M DEA, pH, 25° C.; dioxetane concentration 3.7 × 10^−7M to 6 × 10^−6M
Please provide measured Quantum Yield for the entries that follow.

I would be grateful if you could share the reported Quantum Yield for COC1(c2cccc(OP(=O)(O)O)c2)OOC12C1CC3CC2CC(Cl)(C3)C1 (stereo not drawn) [CSPD, reference compound] .
5.2 × 10^−5

I would be grateful if you could share the reported Quantum Yield for COc1cc(OP(=O)([O-])[O][NaH2-2])cc(C2(OC)OOC23C2CC4CC(C2)CC3C4)c1.[Na+] (stereo not drawn) [Dioxetane 140-20] .
1.5 × 10^−5

I would be grateful if you could share the reported Quantum Yield for COC1(c2cc(Cl)cc(OP(=O)([O-])[O][NaH2-2])c2)OOC12C1CC3CC(C1)CC2C3.[Na+] (stereo not drawn) [Dioxetane 128-70] .
1.4 × 10^−4

I would be grateful if you could share the reported Quantum Yield for COC1(c2cccc(OP(=O)(O)O)c2)OOC12C1CC3CC(C1)CC2C3 (stereo not drawn) [AMPPD, reference compound] .
1.5 × 10^−5

I would be grateful if you could share the reported Quantum Yield for COc1cc(OP(=O)([O-])[O][NaH2-2])cc(C2(OC)OOC23C2CC4CC3CC(Cl)(C4)C2)c1.[Na+] (stereo not drawn) [Dioxetane 140-17] .
2.3 × 10^−5

I would be grateful if you could share the reported Quantum Yield for COC1(c2cc(Cl)cc(OP(=O)([O-])[O][NaH2-2])c2)OOC12C1CC3CC2CC(Cl)(C3)C1.[Na+] (stereo not drawn) [Dioxetane 128-87] .
1.2 × 10^−4

###

- Test system: alkaline phosphatase
- assaySummary: Chemiluminescence emission wavelength maximum (Spex Fluorolog)
- Assay type: biochemical
- settings: second table, 0.1M DEA, pH, 25° C.; dioxetane concentration 3.7 × 10^−7M to 6 × 10^−6M
Please provide measured μL em for the entries that follow.
Reply with just the number.

I would be grateful if you could share the reported μL em for COC1(c2cc(Cl)cc(OP(=O)([O-])[O][NaH2-2])c2)OOC12C1CC3CC(C1)CC2C3.[Na+] (stereo not drawn) [Dioxetane 128-70] .
471

I would be grateful if you could share the reported μL em for COc1cc(OP(=O)([O-])[O][NaH2-2])cc(C2(OC)OOC23C2CC4CC3CC(Cl)(C4)C2)c1.[Na+] (stereo not drawn) [Dioxetane 140-17] .
475

I would be grateful if you could share the reported μL em for COC1(c2cc(Cl)cc(OP(=O)([O-])[O][NaH2-2])c2)OOC12C1CC3CC2CC(Cl)(C3)C1.[Na+] (stereo not drawn) [Dioxetane 128-87] .
470

I would be grateful if you could share the reported μL em for COC1(c2cccc(OP(=O)(O)O)c2)OOC12C1CC3CC(C1)CC2C3 (stereo not drawn) [AMPPD, reference compound] .
477

I would be grateful if you could share the reported μL em for COc1cc(OP(=O)([O-])[O][NaH2-2])cc(C2(OC)OOC23C2CC4CC(C2)CC3C4)c1.[Na+] (stereo not drawn) [Dioxetane 140-20] .
476

I would be grateful if you could share the reported μL em for COC1(c2cccc(OP(=O)(O)O)c2)OOC12C1CC3CC2CC(Cl)(C3)C1 (stereo not drawn) [CSPD, reference compound] .
475

###

Please provide measured Emission Max, nm, No Addition for the entries that follow.
- Tested on: alkaline phosphatase
- assaySummary: Chemiluminescence emission wavelength maximum (Spex Fluorolog)
- Assay type: biochemical
- settings: no enhancement agent
Hi! Could you send only the number? It should be in nm, unit omitted.

I would be grateful if you could share the reported Emission Max, nm, No Addition for COc1cc(OP(=O)([O-])[O][NaH2-2])cc(C2(OC)OOC23C2CC4CC3CC(Cl)(C4)C2)c1.[Na+] (stereo not shown) .
475

I would be grateful if you could share the reported Emission Max, nm, No Addition for COc1cc(OP(=O)([O-])[O][NaH2-2])cc(C2(OC)OOC23C2CC4CC(C2)CC3C4)c1.[Na+] (stereo not shown) .
476

I would be grateful if you could share the reported Emission Max, nm, No Addition for COC1(c2cc(Cl)cc(OP(=O)([O-])[O][NaH2-2])c2)OOC12C1CC3CC(C1)CC2C3.[Na+] (stereo not shown) .
471

I would be grateful if you could share the reported Emission Max, nm, No Addition for COC1(c2cc(Cl)cc(OP(=O)([O-])[O][NaH2-2])c2)OOC12C1CC3CC2CC(Cl)(C3)C1.[Na+] (stereo not shown) .
470
